From: PubChem BioAssay (NCI)

- Tested on: UACC-62 melanoma
- test method notes: NCI tumour cell line growth inhibition, 48 h
Label Condition met for high-side TGI (at or above 20 µM) and Condition not met for low-side TGI (below it).

[[record]]
compound = "NC(N)=N/N=C/c1c(-c2ccc(Cl)cc2)nc2n1CCS2"
study_system = "UACC-62 melanoma"
label_value = "Condition met"

[[record]]
compound = "N#CC1([N+](=O)[O-])C=C1c1ccccc1 (stereo unspecified)"
study_system = "UACC-62 melanoma"
label_value = "Condition met"

[[record]]
compound = "O=C1NC(=O)C2(CCc3ccc(N(CCCl)CCCl)cc32)N1 (stereo unspecified)"
study_system = "UACC-62 melanoma"
label_value = "Condition not met"

[[record]]
compound = "COc1cc2c(cc1OC)C(=O)N1CCCC1C(=O)S2 (stereo unspecified)"
study_system = "UACC-62 melanoma"
label_value = "Condition met"

[[record]]
compound = "CC(=O)NC1=CC(=O)C=C(Cl)C1=O"
study_system = "UACC-62 melanoma"
label_value = "Condition met"

[[record]]
compound = "Cc1ccc(C)c(C(=N)c2ccccc2Cc2ccccc2)c1"
study_system = "UACC-62 melanoma"
label_value = "Condition met"

[[record]]
compound = "COc1cc2c3c(n(CCCN4CCN(CCO)CC4)c(=O)c2cc1OC)-c1cc2c(cc1C3=O)OCO2"
study_system = "UACC-62 melanoma"
label_value = "Condition met"

[[record]]
compound = "CCc1ncc(C(C)(O)c2ccccc2)n1Cc1ccccc1 (stereo unspecified)"
study_system = "UACC-62 melanoma"
label_value = "Condition met"

[[record]]
compound = "CCO/N=C(/CC)c1ccc(Br)s1"
study_system = "UACC-62 melanoma"
label_value = "Condition met"

[[record]]
compound = "CC1=C(C(=O)NCc2ccccc2)C(c2ccccc2O)C(C(=O)NCc2ccccc2)=C(C)N1"
study_system = "UACC-62 melanoma"
label_value = "Condition met"

[[record]]
compound = "COc1ccc(/C=C/C(=O)/C=C(/C=C/c2ccc(OC)c(OC)c2OC)OB(F)F)c(OC)c1OC"
study_system = "UACC-62 melanoma"
label_value = "Condition not met"


---

- Tested on: BT-549 breast
- test method notes: NCI tumour cell line growth inhibition, 48 h; in the data active = GI50 below about 0.43 µM; inactive = the rest
Labels: active, inactive

[[record]]
molecule = "CC(=O)Nc1nc(C)c(-c2cc3c(c(S(C)(=O)=O)c2)C(=O)N([C@@H](C)C2CC2)C3)s1"
label_value = "inactive"

[[record]]
molecule = "COc1cc2c3c(n(CCCN4CCN(CCO)CC4)c(=O)c2cc1OC)-c1cc2c(cc1C3=O)OCO2"
label_value = "inactive"

[[record]]
molecule = "COc1ccc(OC)c(/C=C/C(=O)c2ccc3cc(OC)ccc3c2)c1"
label_value = "inactive"

[[record]]
molecule = "COC(=O)CCc1c(/C=C2\\N=C(c3ccc[nH]3)C=C2OC)[nH]c(C)c1C(=O)OCc1ccccc1"
label_value = "active"

[[record]]
molecule = "COc1ccc2c(c1)C(=O)c1c-2n(CCCNCCO)c(=O)c2cc([N+](=O)[O-])ccc12"
label_value = "active"

[[record]]
molecule = "NC(=S)N=Nc1c(O)[nH]c2ccccc12"
label_value = "inactive"

[[record]]
molecule = "O=C(Nc1ccc(N2CCNCC2)cn1)c1[nH]ncc1Nc1ncnc2sc3c(c12)CCC3"
label_value = "inactive"

[[record]]
molecule = "CCCC(CCC)C(=O)O"
label_value = "inactive"

[[record]]
molecule = "COc1ccc2c(c1)NC(=O)CN2c1nc(C)nc2ccccc12"
label_value = "active"

[[record]]
molecule = "Cn1c(=O)c2[nH]cnc2n(C)c1=O.[CH2-]C(Cc1cccc2cc(C(=O)O)c(=O)oc12)OC.[Hg+2].[OH-] (configuration not stated)"
label_value = "inactive"

[[record]]
molecule = "CN1CCN(Cc2ccc(NC(=O)c3cncc(C#Cc4ncc5ccccn45)c3)cc2C(F)(F)F)CC1"
label_value = "inactive"

[[record]]
molecule = "O=C1/C(=C/c2cccc(F)c2)CN(C(=O)C(Cl)Cl)C/C1=C\\c1cccc(F)c1"
label_value = "active"

